- targetSystem: Thromboxane A2 receptor (Homo sapiens)
- Sequence (P21731 whole entry): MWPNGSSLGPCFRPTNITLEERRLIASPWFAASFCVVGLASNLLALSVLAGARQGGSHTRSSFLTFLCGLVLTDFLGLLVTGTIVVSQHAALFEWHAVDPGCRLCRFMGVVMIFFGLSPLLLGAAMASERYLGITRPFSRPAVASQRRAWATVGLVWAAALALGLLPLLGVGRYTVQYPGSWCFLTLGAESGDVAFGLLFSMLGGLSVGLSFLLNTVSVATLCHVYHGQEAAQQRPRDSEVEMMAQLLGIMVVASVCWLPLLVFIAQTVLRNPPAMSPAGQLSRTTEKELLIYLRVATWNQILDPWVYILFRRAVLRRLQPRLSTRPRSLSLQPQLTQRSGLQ
- experimentNotes: Antagonist activity against human thromboxane A2 receptor alpha expressed in QBI-HEK293A cells assessed as reduction in I-BOP-induced inositol monophosphate production incubated for 15 to 60 mins before I-BOP addition by HTRF assay
Measured pIC50, listed per entry for reference.
Interpret pIC50 as the negative base-10 log of the concentration measured in mol/L.

Answered examples (8):
>>> number("O=C1C(c2ccc(F)cc2)=C(O)CC1Cc1cccc2c1CCC(NS(=O)(=O)c1ccc(Cl)cc1)C2 (configuration not stated)")
8.19
>>> number("Cc1ccc2c(c1CCC(=O)O)CC[C@@H](NS(=O)(=O)c1ccc(Cl)cc1)C2")
7.79
>>> number("Cc1cccc(C)c1C1=C(OCC(C)C)CC(Cc2cccc3c2CCC(NS(=O)(=O)c2ccc(Cl)cc2)C3)C1=O (configuration not stated)")
5.56
>>> number("Cc1cccc(C)c1C1=C(O)CC(Cc2cccc3c2CCCC3)C1=O (configuration not stated)")
6.05
>>> number("O=C1C(c2ccccc2)=C(O)CC1Cc1cccc2c1CCC(NS(=O)(=O)c1ccc(Cl)cc1)C2 (configuration not stated)")
8.41
>>> number("O=C1C(c2ccccc2)=C(O)CC1Cc1cccc(CCNS(=O)(=O)c2ccc(Cl)cc2)c1 (racemic)")
7.23
>>> number("O=C1C(C2CCCCC2)=C(O)CC1Cc1cccc(CCNS(=O)(=O)c2ccc(Cl)cc2)c1 (configuration not stated)")
6.05
>>> number("COc1ccc(C2=C(O)CC(Cc3cccc4c3CCC(NS(=O)(=O)c3ccc(Cl)cc3)C4)C2=O)cc1 (configuration not stated)")
10.28

Determine its reported pIC50: O=C1C(Cc2ccccc2)=C(O)CC1Cc1cccc2c1CCC(NS(=O)(=O)c1ccc(Cl)cc1)C2 (configuration not stated)
7.53

Provide one value: measured pIC50 of O=C(O)Cc1cccc2c1CCC(NS(=O)(=O)c1ccc(Cl)cc1)C2 (configuration not stated)
7.97

Tell me pIC50 reported for CC1=C(O)CC(Cc2cccc3c2CCC(NS(=O)(=O)c2ccc(Cl)cc2)C3)C1=O (configuration not stated)
7.95

Report pIC50, nothing else, for this molecule: Cc1cccc(C)c1C1=C(O)CC(Cc2cccc3c2CCC(NS(=O)(=O)c2ccc(Cl)cc2)C3)C1=O (configuration not stated)
10.82
